Values were extracted from ChEMBL document CHEMBL1201862.

Below, each entry is listed with its recorded GI50.
system: SK-MEL-28; assay: NCI tumour cell line growth inhibition, 48 h
Calls of active or inactive are those of the source. No stated cut-off is given here; in the data, active = GI50 up to about 1.1 µM and inactive = higher.

Consider the reported GI50 for these compounds:
compound	GI50
O=C1C(NS(=O)(=O)c2ccccc2)=C(N(Cc2ccccc2)Cc2ccccc2)C(=O)c2ccccc21	40.9 µM (inactive)
COC(=O)c1cnn2c1n[n+]([O-])c1ccccc12	> 100 µM (inactive)
COc1ccc2c(C)cc(=O)oc2c1OC	> 100 µM (inactive)

Please report the recorded GI50 for CC(C)OP(=O)(OC(C)C)/C(N)=N/Nc1ccc([N+](=O)[O-])cc1 .
> 100 µM (inactive)

Please report the recorded GI50 for O=C1OS2(OC(=O)c3cccc4cccc2c34)c2ccccc21 (stereo unspecified) .
> 100 µM (inactive)

Please report the recorded GI50 for CC(=O)c1ccc(NC(=O)/C(Cc2ccccn2)=N/NC(=O)C[N+](C)(C)C)cc1 .
> 100 µM (inactive)

Please report the recorded GI50 for CC(=O)OC/C=C(\C)CCC(Br)C(C)(C)Br (stereo unspecified) .
> 10 µM (inactive)

Please report the recorded GI50 for O=C1/C(=N\O)C2CCC1C2 (stereo unspecified) .
> 100 µM (inactive)

Please report the recorded GI50 for CCOC(=O)Cn1c(=O)[nH]c(=O)c2[nH]cnc21 .
> 100 µM (inactive)

Please report the recorded GI50 for Clc1cc(N/N=C(\c2ccccc2)c2ccccn2)ncn1 .
1.44 µM (inactive)

Please report the recorded GI50 for CC1(C)[C@@H]2C[C@H]1[C@@H](Cc1cccc(C[C@H]3c4cc(-c5ccccn5)ncc4[C@H]4C[C@@H]3C4(C)C)c1)c1cc(-c3ccccn3)ncc12 .
4.92 µM (inactive)

Please report the recorded GI50 for N#Cc1nc(-c2ccccn2)oc1N .
> 100 µM (inactive)
